Notes on IC50 obtained with UniProt:P0DTD1.

| Molecule | Study System | IC50 |
| --- | --- | --- |
| Cc1ccc(-c2noc(C(C)c3cccc4ccccc34)n2)cc1NCc1ccc(C(=O)O)cc1 (centres undefined) | UniProt:P0DTD1 | 0.2 µM |
| COC(=O)c1ccc(CNc2ccc(C)c(-c3noc(C(C)c4cccc5ccccc45)n3)c2)cc1 (centres undefined) | UniProt:P0DTD1 | > 200 µM |
| CONC(=O)c1ccc(-c2ccc(-c3noc(C(C)c4cccc5ccccc45)n3)cc2)cc1 (centres undefined) | UniProt:P0DTD1 | 0.9 µM |
| Cc1ccc(-c2noc(-c3ccc(-c4ccccc4)cc3)n2)cc1NCc1ccc(C(=O)O)s1 | UniProt:P0DTD1 | 25.5 µM |
| Cc1ccc(-c2noc(C(C)c3cccc(-c4ccccc4)c3)n2)cc1NCc1ccc(C(=O)O)s1 (centres undefined) | UniProt:P0DTD1 | 4.3 µM |
| Cc1ccc(-c2noc(Cc3cccc(-c4cccs4)c3)n2)cc1NCc1ccc(C(=O)O)s1 | UniProt:P0DTD1 | 6.8 µM |
| Cc1ccc(-c2noc(C(C)(C)c3ccc(-c4ccccc4)cc3)n2)cc1NCc1ccc(C(=O)O)s1 | UniProt:P0DTD1 | 35.4 µM |
| CC(c1nc(-c2ccc(-c3ccc(C(=O)O)cc3)cc2)no1)c1cccc2ccccc12 (centres undefined) | UniProt:P0DTD1 | 11.7 µM |
| Cc1ccc(-c2noc(-c3cccc4ccccc34)n2)cc1NCc1ccc(C(=O)O)s1 | UniProt:P0DTD1 | 11.6 µM |

###

- Experimental Protocol: Metabolic stability in human liver microsomes assessed as compound remaining at 1 uM preincubated for 5 mins followed by NADPH addition and measured after 30 mins by LC-MS/MS analysis
- Format: ADME, Microsome
- Test Settings: read-out: Stability
Quantity: remaining at 0.5 h, 1 µM (%)

| Molecule | Quantity | Unit String | Obs Value |
| --- | --- | --- | --- |
| CC(c1nc(-c2ccc(NCc3ccc(C(=O)O)s3)cc2)no1)c1cccc2ccccc12 (centres undefined) | remaining at 0.5 h, 1 µM | % | 102 |
| CC(c1nc(-c2ccc(-c3ccc(C(=O)O)s3)cc2)no1)c1cccc2ccccc12 (centres undefined) | remaining at 0.5 h, 1 µM | % | 82.1 |
| Cc1ccc(-c2noc(C(C)c3cccc(Oc4ccccc4)c3)n2)cc1NCc1ccc(C(=O)O)s1 (centres undefined) | remaining at 0.5 h, 1 µM | % | 87 |
| Cc1ccc(-c2noc(C(C)c3ccc(-c4ccccc4)c(F)c3)n2)cc1NCc1ccc(C(=O)O)s1 (racemic) | remaining at 0.5 h, 1 µM | % | 101 |

###

Items are presented alongside their recorded MRT inf.
- Experimental Protocol: MRT(0 to infinity) in BALB/c mouse at 50 mg/kg, po measured upto 48 hrs by LC-MS/MS analysis
- Format: ADME, organism-based
- Test Settings: in vivo
Quantity: MRT inf

| Compound | Quantity | Obs Value |
| --- | --- | --- |
| CC(c1nc(-c2ccc(-c3ccc(C(=O)O)s3)cc2)no1)c1cccc2ccccc12 (configuration not stated) | MRT inf | 8.29 h |
| Cc1ccc(-c2noc(C(C)c3ccc(-c4ccccc4)c(F)c3)n2)cc1NCc1ccc(C(=O)O)s1 (racemic) | MRT inf | 2.72 h |

###

- Study System: Replicase polyprotein 1ab (Severe acute respiratory syndrome coronavirus 2, UniProt P0DTD1)

| Molecule | Unit String | Inequality Sign | IC50 |
| --- | --- | --- | --- |
| Cc1ccc(N)cc1-c1noc(C(C)c2cccc3ccccc23)n1 (configuration not stated) | µM | > | 200 |
| CC(c1nc(-c2ccc(NCc3ccc(C(=O)O)cc3)cc2)no1)c1cccc2ccccc12 (configuration not stated) | µM | = | 50.2 |
| Cc1ccc(-c2noc(C(C)c3ccc(CC(C)C)cc3)n2)cc1NCc1ccc(C(=O)O)s1 (configuration not stated) | µM | = | 3.6 |
| CC(c1nc(-c2ccc(-c3ccc(C(=O)O)s3)cc2)no1)c1cccc2ccccc12 (configuration not stated) | µM | = | 1.8 |
| CC(c1noc(-c2ccc(-c3ccc(C#N)s3)cc2)n1)c1cccc2ccccc12 (configuration not stated) | µM | = | 31.4 |
| Cc1ccc(NC2CCCCC2)cc1-c1noc(C(C)c2cccc3ccccc23)n1 (configuration not stated) | µM | = | 101 |
| Cc1ccc(NCc2cccc(C(=O)O)c2)cc1-c1noc(C(C)c2cccc3ccccc23)n1 (configuration not stated) | µM | = | 11.1 |
| Cc1ccc(NCc2ccc(C(=O)O)cc2)cc1-c1noc(C(C)c2cccc3ccccc23)n1 (configuration not stated) | µM | = | 11.2 |
| COc1ccc2cc([C@@H](C)c3nc(-c4ccc(C)c(NCc5ccc(C(=O)O)s5)c4)no3)ccc2c1 | µM | = | 10.5 |
| Cc1ccc(NCc2ccc(C#N)cc2)cc1-c1noc(C(C)c2cccc3ccccc23)n1 (configuration not stated) | µM | > | 200 |
| Cc1ccc(NCc2ccc(C(=O)O)s2)cc1-c1noc(C(C)c2cccc3ccccc23)n1 (configuration not stated) | µM | = | 10.4 |
| Cc1ccc(NCc2ccc(S(C)(=O)=O)cc2)cc1-c1noc(C(C)c2cccc3ccccc23)n1 (configuration not stated) | µM | = | 59.2 |
| CC(c1nc(-c2cc(NCc3ccc(C(=O)O)s3)cc(C(F)(F)F)c2)no1)c1cccc2ccccc12 (configuration not stated) | µM | = | 0.1 |
| CC(c1nc(-c2cccc(NCc3ccc(C(=O)O)s3)c2)no1)c1cccc2ccccc12 (configuration not stated) | µM | = | 7.6 |
| CC(c1nc(-c2cc(NCc3ccc(C(=O)O)cc3)cc(C(F)(F)F)c2)no1)c1cccc2ccccc12 (configuration not stated) | µM | = | 0.2 |
| Cc1ccc(NCc2ccc(O)cc2)cc1-c1noc(C(C)c2cccc3ccccc23)n1 (configuration not stated) | µM | = | 176 |
| CC(c1nc(-c2cccc(NCc3ccc(C(=O)O)o3)c2)no1)c1cccc2ccccc12 (configuration not stated) | µM | = | 96.5 |
| CC(c1nc(-c2ccc(NCc3ccc(C(=O)O)s3)cc2)no1)c1cccc2ccccc12 (configuration not stated) | µM | = | 0.2 |
| CC(c1ncc(-c2ccc(-c3ccc(C#N)s3)cc2)o1)c1cccc2ccccc12 (configuration not stated) | µM | = | 20.8 |
| Cc1ccc(-c2noc(C(C)c3cccc(-c4cccs4)c3)n2)cc1NCc1ccc(C(=O)O)s1 (configuration not stated) | µM | = | 4.1 |
| Cc1ccc(-c2noc(C(C)c3ccc(N4Cc5ccccc5C4=O)cc3)n2)cc1NCc1ccc(C(=O)O)s1 (configuration not stated) | µM | = | 3.9 |
| Cc1ccc(-c2noc([C@@H](C)c3ccc(-c4ccccc4)c(F)c3)n2)cc1NCc1ccc(C(=O)O)s1 | µM | = | 3.4 |
| COC(=O)c1ccc(Nc2ccc(C)c(-c3noc(C(C)c4cccc5ccccc45)n3)c2)cc1 (configuration not stated) | µM | = | 70.9 |
| CC(c1nc(-c2cc(NCc3ccc(C(=O)O)cc3)ccc2Br)no1)c1cccc2ccccc12 (configuration not stated) | µM | = | 2.1 |
| Cc1ccc(-c2noc(C(C)c3ccc(-c4ccccc4)c(F)c3)n2)cc1NCc1ccc(C(=O)O)s1 (racemic) | µM | = | 1 |
| COc1ccc(-c2noc(C(C)c3cccc4ccccc34)n2)cc1NCc1ccc(C(=O)O)s1 (configuration not stated) | µM | = | 1.3 |
| Cc1ccc(-c2noc(C(C)c3cccc4ccccc34)n2)cc1NCc1ccc(C(=O)O)s1 (configuration not stated) | µM | = | 0.1 |
| CC(c1nc(-c2ccc(N(C)Cc3ccc(C(=O)O)s3)cc2)no1)c1cccc2ccccc12 (configuration not stated) | µM | = | 4 |
| Cc1ccc(-c2noc(-c3ccccc3)n2)cc1NCc1ccc(C(=O)O)s1 | µM | = | 59 |
| Cc1ccc(Nc2ccc(C(=O)O)cc2)cc1-c1noc(C(C)c2cccc3ccccc23)n1 (configuration not stated) | µM | = | 10.7 |
| COc1ccc2cc(C(C)c3nc(-c4ccc(C)c(NCc5ccc(C(=O)O)s5)c4)no3)ccc2c1 (racemic) | µM | = | 5.9 |
| Cc1ccc(-c2noc(C(C)c3cccc(Oc4ccccc4)c3)n2)cc1NCc1ccc(C(=O)O)s1 (configuration not stated) | µM | = | 4.4 |
| CC(c1nc(-c2ccc(-c3ccc(C#N)s3)cc2)no1)c1cccc2ccccc12 (configuration not stated) | µM | = | 0.6 |
| Cc1ccc(NCC(C)(C)C)cc1-c1noc(C(C)c2cccc3ccccc23)n1 (configuration not stated) | µM | > | 200 |
| CC(c1nc(-c2cccc(NCc3ccc(C(=O)O)cc3)c2)no1)c1cccc2ccccc12 (configuration not stated) | µM | = | 7.5 |
| Cc1ccc(-c2noc(C(C)c3ccc4c(c3)[nH]c3ccc(Cl)cc34)n2)cc1NCc1ccc(C(=O)O)s1 (configuration not stated) | µM | = | 1.9 |
| Cc1ccc(-c2noc(C(O)c3ccccc3)n2)cc1NCc1ccc(C(=O)O)s1 (configuration not stated) | µM | = | 435 |
